B1: PKD2L1 (parent)
chain: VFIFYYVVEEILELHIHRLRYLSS

# Variants of: B1
# measurement protocol: protein stability index of a GFP-peptide fusion (GPS, HEK-293T) (PSI 1-6); higher = more stable;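 also: lentivirally expressed fusions sorted by FACS into six bins by GFP to DsRed ratio, PSI derived from sequencing read proportions per bin multiplied by bin number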
# assay setup: c terminus: a fixed tail appended
# if value of protein stability index reaches 3, tag satisfied; if it stays below, tag not satisfied

Exercise: Quick check: does L14R have protein stability index greater than or equal to 3?
Solution: not satisfied

Exercise: Quick check: does I11V have protein stability index greater than or equal to 3?
Solution: satisfied
